Every entry's value here was drawn from patent US6528251B2.

Tested on: Recombinant wild type HIV strain recIIIB
Measurement Description: Antiviral MT4/MTT assay with reference virus recIIIB
Format: cell-based, HIV-1
Condition Parameters: Human immunodeficiency virus 1, read-out: Anti-HIV-1 activity IC50 (μM) recIIIB ref (2), Table 8, reference run of Example 12
Measured Property: IC50

According to the records, this compound `Nc1ccn([C@@H]2CS[C@H](CO)O2)c(=O)n1` displays IC50 of 4.61 µM

* * *

Tested on: recombinant virus from patient viral RNA (Example 10, drug-naive patient)
Measurement Description: Recombinant virus assay (MT4/MTT), drug-naive patient of Example 10
Format: cell-based, HIV-1
Condition Parameters: Human immunodeficiency virus 1; Table 6, Example 10 patient virus, MT4 cells; read-out: Anti-HIV-1 activity IC50 (μM) Exp. 2
Items are presented alongside their recorded IC50.
Lab book: enter the figure in µM, no units written.

Some molecules with known IC50 results, for comparison:
Smiles String	Assayed System	IC50 (µM)
CC(C)(C)NC(=O)[C@@H]1CN(Cc2cccnc2)CCN1C[C@@H](O)C[C@@H](Cc1ccccc1)C(=O)N[C@H]1c2ccccc2C[C@H]1O	recombinant virus from patient viral RNA (Example 10, drug-naive patient)	0.013
Nc1ccn([C@@H]2CS[C@H](CO)O2)c(=O)n1	recombinant virus from patient viral RNA (Example 10, drug-naive patient)	1.72
CC(C)c1nc(CN(C)C(=O)N[C@H](C(=O)N[C@@H](Cc2ccccc2)C[C@H](O)[C@H](Cc2ccccc2)NC(=O)OCc2cncs2)C(C)C)cs1	recombinant virus from patient viral RNA (Example 10, drug-naive patient)	0.017

Tested on recombinant virus from patient viral RNA (Example 10, drug-naive patient): `CC(C)(C)NC(=O)[C@@H]1C[C@@H]2CCCC[C@@H]2CN1C[C@@H](O)[C@H](Cc1ccccc1)NC(=O)[C@H](CC(N)=O)NC(=O)c1ccc2ccccc2n1` . Observed IC50: 0.003

Tested on recombinant virus from patient viral RNA (Example 10, drug-naive patient): `Cc1cn([C@H]2C[C@H](N=[N+]=[N-])[C@@H](CO)O2)c(=O)[nH]c1=O` . Observed IC50: 0.019
